TESTED TARGET: Glutamate NMDA receptor
EXPERIMENT: Displacement of [3H] MK-801 from NMDA glutamate ion channel in Wistar rat brain membranes (minus cerebellum) after 3 hrs by scintillation counting analysis
Listing: pIC50 of selected compounds
Just the number, please; pIC50 means minus log10 of the concentration in mol/L.

COC(=O)CCCCNC1(c2ccccc2Cl)CCCCC1=O (stereo unspecified); 5.52
O=C(CCNC1(c2ccccc2Cl)CCCCC1=O)Oc1ccccc1 (stereo unspecified); 4.14
CNC(=O)CCCCNC1(c2ccccc2Cl)CCCCC1=O (stereo unspecified); 4.11

Dear colleague, please send me the reported pIC50 for CC(C)OC(=O)CCNC1(c2ccccc2Cl)CCCCC1=O (stereo unspecified) when you can.
3.87

Tell me pIC50 reported for CNC1(c2ccccc2Cl)CCCCC1=O (stereo unspecified)
6.15

// fetch pIC50 given entry COC(=O)COCCNC1(c2ccccc2Cl)CCCCC1=O (stereo unspecified)
4.89

Check the records and state pIC50 for CNC(=O)CCNC1(c2ccccc2Cl)CCCCC1=O (stereo unspecified)
4.14

Please give the documented pIC50 of CC(C)NC(=O)CCNC1(c2ccccc2Cl)CCCCC1=O (stereo unspecified)
4.24

Query pIC50 for CN(C)C(=O)CCNC1(c2ccccc2Cl)CCCCC1=O (stereo unspecified)
3.38
